- Test system: Amaranthus retroflexus
- Procedure details: Pre-emergence herbicidal action against AMARE
- Format: in vivo
- Cond: 20 g/ha; visual score after 3 weeks vs untreated controls
Each entry below lists one item and its recorded Pre-emergence action against AMARE value.
Could you give me the number in %? Just the number is fine.

Examples with their reported Pre-emergence action against AMARE follow.
[
  {
    "Query smiles": "CCN(C(=O)c1c(C(F)(F)F)ccc(C(=O)Nc2nnnn2C)c1Cl)C1CC1",
    "Unit name": "%",
    "Reported result": 90
  },
  {
    "Query smiles": "Cc1c(C(=O)Nc2nnnn2C)ccc(C(F)F)c1C(=O)N(C)C",
    "Unit name": "%",
    "Reported result": 90
  },
  {
    "Query smiles": "CCN(C)C(=O)c1c(C(F)F)ccc(C(=O)Nc2nnnn2C)c1Cl",
    "Unit name": "%",
    "Reported result": 100
  }
]

Exercise: Lab note: Amaranthus retroflexus assay, enter Pre-emergence action against AMARE for CCOC(=O)[C@@H]1CCCN1C(=O)c1c(C(F)(F)F)ccc(C(=O)Nc2nnnn2CC)c1C here
Solution: 90

Exercise: Lab note: Amaranthus retroflexus assay, enter Pre-emergence action against AMARE for CCn1nnnc1NC(=O)c1ccc(C(F)F)c(C(=O)N(C2CC2)C2CC2)c1Cl here
Solution: 100

Exercise: Lab note: Amaranthus retroflexus assay, enter Pre-emergence action against AMARE for CN(C(=O)c1c(C(F)(F)F)ccc(C(=O)Nc2nnnn2C)c1Cl)C1CC1 here
Solution: 100

Exercise: Lab note: Amaranthus retroflexus assay, enter Pre-emergence action against AMARE for CN(C)C(=O)c1c(C(F)(F)F)ccc(C(=O)Nc2nnnn2C)c1Cl here
Solution: 90

Exercise: Lab note: Amaranthus retroflexus assay, enter Pre-emergence action against AMARE for CCn1nnnc1NC(=O)c1ccc(C(F)F)c(C(=O)N(C)C)c1Cl here
Solution: 100

Exercise: Lab note: Amaranthus retroflexus assay, enter Pre-emergence action against AMARE for CCN(CC)C(=O)c1c(C(F)(F)F)ccc(C(=O)Nc2nnnn2C)c1C here
Solution: 100

Exercise: Lab note: Amaranthus retroflexus assay, enter Pre-emergence action against AMARE for CCCn1nnnc1NC(=O)c1ccc(C(F)(F)F)c(C(=O)N(C)CC)c1Cl here
Solution: 90

Exercise: Lab note: Amaranthus retroflexus assay, enter Pre-emergence action against AMARE for CCn1nnnc1NC(=O)c1ccc(C(F)F)c(C(=O)N(C)C2CC2)c1Cl here
Solution: 100

Exercise: Lab note: Amaranthus retroflexus assay, enter Pre-emergence action against AMARE for CCn1nnnc1NC(=O)c1ccc(Br)c(C(=O)N(C)C)c1Cl here
Solution: 100
